assayName: Effect of verapamil, PEG 400 and EDTA on trans-enterocyte transport of CA
Assay type: in vitro ADME, human
conditionInfo: human, Caco-2, CA 100 μM, 0.5 h, + 5% PEG 400; read-out: Papp AP to BL
Description: CA was dissolved in HBSS solution at 50, 75, and 100 μM. The HBSS solution containing CA combined with 0.5% Tween 80, 5 mmol/L EDTA or 5% PEG 400 was prepared. The cumulative migration (Qr), apparent permeability coefficient (Papp), and the Papp value of bi-direction transport of CA were calculated according to formulas. […]
resultType: Papp A→B at 0.5 h, 100 μM (nm/s)
Output spec: scalar in nm/s, unitless text.

Identify measured Papp A→B at 0.5 h, 100 μM corresponding to CC(C)c1cc2c(c(O)c1O)[C@@]1(C(=O)O)CCCC(C)(C)[C@@H]1CC2 32.1
